The reported measurements were obtained from patent US20210355194A1.

For each entry below, report its pKd value.
- system.under.test: T1, Acro SARS-CoV-2 (COVID-19) S1 protein (SARS-CoV-2, UniProt P0DTC2 16-685)
- T1 construct: also called SARS-CoV-2 S1
- assay: SPR
One number for each entry, as −log10 of the molar value.

binder	endpoint.result
variant 6-25 (Fc fusion) VHH: EVQLVESGGGLVQPGGSLRLSCAASGLTFGTYTMGWFRQAPGKEREFVAAISRFGSTYYADSVKGRFTISADNSKNTAYLQMNSLKPEDTAVYYCARGGDYDFWSVDYMDVWGQGTLVTVSS	6.61
variant 5-15 (Fc fusion) VHH: EVQLVESGGGLVQPGGSLRLSCAASGFTFDGAAMGWFRQAPGKEREFVATIRWTNSTDYADSVKGRFTISADNSKNTAYLQMNSLKPEDTAVYYCARGRYGIVERWGQGTLVTVSS	7.02
variant 6-33 (Fc fusion) VHH: EVQLVESGGGLVQPGGSLRLSCAASGTFQRINHMGWFRQAPGKEREFVATINTGGQPNYADSVKGRFTISADNSKNTAYLQMNSLKPEDTAVYYCASLIAAQDYYFDYWGQGTLVTVSS	7.12

Consider the record given below.
Provide only the value of recorded pKd for variant 5-64 (Fc fusion) VHH: EVQLVESGGGLVQPGGSLRLSCAASGTSISNRVMGWFRQAPGKERELVARIYTGGDTLYADSVKGRFTISADNSKNTAYLQMNSLKPEDTAVYYCAARKIYRSLSYYGDYDWGQGTLVTVSS
6.46
